PROCEDURE_SUMMARY: Half life in Sprague-Dawley rat at 10 mg/kg, po
Format: ADME, organism-based
CONDITION_INFO: in vivo
MEASURED_PARAMETER: half-life (h)
Kindly answer with a numeric value in h, unit omitted.

Recorded result, `CCc1cc(NC(=O)Nc2ccc(-c3cnc(Nc4cc(N5CCN(CC)CC5)nc(C)n4)s3)cc2)no1` , half-life: 4.3

====

Entries and their bioavailability values follow.
PROCEDURE_SUMMARY: Oral bioavailability in Sprague-Dawley rat at 10 mg/kg
Type: ADME, organism-based
CONDITION_INFO: in vivo
Kindly answer with a numeric value in %, unit omitted.

{"CHEMICAL_STRING": "CCc1cc(NC(=O)Nc2ccc(-c3cnc(Nc4cc(N5CCN(C)CC5)nc(C)n4)s3)cc2)no1", "bioavailability / %": 18}
{"CHEMICAL_STRING": "CCc1cc(NC(=O)Nc2ccc(-c3cnc(Nc4cc(N5CCN(CC)CC5)nc(C)n4)s3)cc2)no1", "bioavailability / %": 20}

Recorded result, `Cc1nc(Nc2ncc(-c3ccc(NC(=O)Nc4cc(C)on4)cc3)s2)cc(N2CCN(C)CC2)n1` , bioavailability: 10

====

Below are molecules with their pIC50 as measured on Aurora kinase A (Homo sapiens).
Sequence (O14965 whole entry): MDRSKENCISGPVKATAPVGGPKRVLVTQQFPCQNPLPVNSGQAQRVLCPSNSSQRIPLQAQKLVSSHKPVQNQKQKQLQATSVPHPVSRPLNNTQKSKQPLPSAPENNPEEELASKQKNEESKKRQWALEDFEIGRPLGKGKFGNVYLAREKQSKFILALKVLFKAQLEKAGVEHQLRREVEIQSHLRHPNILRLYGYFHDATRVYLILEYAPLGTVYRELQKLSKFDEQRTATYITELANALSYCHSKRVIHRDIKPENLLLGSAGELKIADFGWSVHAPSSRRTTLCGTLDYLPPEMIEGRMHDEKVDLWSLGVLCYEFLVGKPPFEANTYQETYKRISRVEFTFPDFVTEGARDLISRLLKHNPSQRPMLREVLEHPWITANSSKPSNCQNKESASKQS
When answering, recall that pIC50 equals minus log10 of the concentration in mol/L, and write that number alone.

# example entries with known answers
{"CHEMICAL_STRING": "Cc1nc(Nc2ncc(-c3ccc(NC(=O)Nc4cc(C)on4)cc3)s2)cc(N2CCN(C)CC2)n1", "MEASURED_PARAMETER": "pIC50", "VALUE_REPORTED": 7.25}
{"CHEMICAL_STRING": "Cc1nc(Nc2ncc(-c3ccc(NC(=O)Nc4ccccc4)cc3)s2)cc(N2CCC(N)CC2)n1", "MEASURED_PARAMETER": "pIC50", "VALUE_REPORTED": 6.82}

Short answer on Aurora kinase A (Homo sapiens) for `CCN1CCN(c2cc(Nc3ncc(-c4ccc(NC(=O)Nc5ccc(Cl)cc5)cc4)s3)nc(C)n2)CC1` , pIC50: 7.02

Short answer on Aurora kinase A (Homo sapiens) for `CCCCc1cc(NC(=O)Nc2ccc(-c3cnc(Nc4cc(N5CCN(C)CC5)nc(C)n4)s3)cc2)no1` , pIC50: 7.42

Short answer on Aurora kinase A (Homo sapiens) for `CCc1cc(NC(=O)Nc2ccc(-c3cnc(Nc4cc(N5CCN(C)CC5)nc(C)n4)s3)cc2)no1` , pIC50: 7.39

====

PROCEDURE_SUMMARY: Volume of distribution at steady state in ICR mouse at 2 mg/kg, iv
Type: ADME, organism-based
CONDITION_INFO: in vivo, read-out: Vdss
MEASURED_PARAMETER: Vd (L/kg)
Kindly answer with a numeric value in L/kg, unit omitted.

Recorded result, `CCc1cc(NC(=O)Nc2ccc(-c3cnc(Nc4cc(N5CCN(CC)CC5)nc(C)n4)s3)cc2)no1` , Vd: 21

====

STUDY_TARGET: Vascular endothelial growth factor receptor 2 (Homo sapiens, UniProt P35968)
Sequence (P35968 whole entry): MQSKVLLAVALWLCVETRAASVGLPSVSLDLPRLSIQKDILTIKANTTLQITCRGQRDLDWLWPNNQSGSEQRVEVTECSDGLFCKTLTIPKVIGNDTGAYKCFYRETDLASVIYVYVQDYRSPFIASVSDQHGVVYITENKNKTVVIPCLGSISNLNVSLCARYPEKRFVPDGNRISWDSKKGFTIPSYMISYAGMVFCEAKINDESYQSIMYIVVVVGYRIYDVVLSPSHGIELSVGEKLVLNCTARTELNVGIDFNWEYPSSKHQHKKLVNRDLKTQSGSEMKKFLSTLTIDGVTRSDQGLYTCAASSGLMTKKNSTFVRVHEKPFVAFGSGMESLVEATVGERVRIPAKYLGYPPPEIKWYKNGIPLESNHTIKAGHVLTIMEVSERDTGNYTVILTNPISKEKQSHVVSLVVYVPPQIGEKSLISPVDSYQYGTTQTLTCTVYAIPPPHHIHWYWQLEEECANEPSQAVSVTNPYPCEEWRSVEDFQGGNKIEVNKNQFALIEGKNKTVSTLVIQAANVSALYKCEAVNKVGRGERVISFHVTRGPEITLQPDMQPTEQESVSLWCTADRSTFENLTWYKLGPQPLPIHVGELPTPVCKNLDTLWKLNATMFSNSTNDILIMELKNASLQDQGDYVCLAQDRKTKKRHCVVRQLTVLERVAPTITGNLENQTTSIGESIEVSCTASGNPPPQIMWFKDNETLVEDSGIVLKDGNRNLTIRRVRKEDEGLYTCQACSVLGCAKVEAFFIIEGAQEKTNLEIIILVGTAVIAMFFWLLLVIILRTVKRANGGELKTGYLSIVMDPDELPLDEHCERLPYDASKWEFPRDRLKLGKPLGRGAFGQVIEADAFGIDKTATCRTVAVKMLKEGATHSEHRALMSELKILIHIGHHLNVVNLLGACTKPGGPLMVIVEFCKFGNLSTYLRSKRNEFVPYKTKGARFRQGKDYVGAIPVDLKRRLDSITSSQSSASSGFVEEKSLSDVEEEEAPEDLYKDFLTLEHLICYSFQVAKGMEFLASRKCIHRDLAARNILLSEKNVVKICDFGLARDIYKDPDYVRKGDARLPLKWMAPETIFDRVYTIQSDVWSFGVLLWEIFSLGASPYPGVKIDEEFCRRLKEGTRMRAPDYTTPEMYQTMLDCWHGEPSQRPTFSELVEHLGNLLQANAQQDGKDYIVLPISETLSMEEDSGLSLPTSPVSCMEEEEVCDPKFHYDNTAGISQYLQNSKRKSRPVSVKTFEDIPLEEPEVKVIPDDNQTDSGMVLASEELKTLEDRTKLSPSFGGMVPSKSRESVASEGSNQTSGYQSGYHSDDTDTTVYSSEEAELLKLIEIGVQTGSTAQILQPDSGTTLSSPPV
PROCEDURE_SUMMARY: biochemical
Description: Inhibition of recombinant GST-tagged VEGFR2 kinase domain (V789 to V1356) (unknown origin) expressed in insect Sf9 cells using polyGlu4:Tyr peptide as substrate after 120 mins by Kinase-Glo assay
MEASURED_PARAMETER: IC50 (nM)
Kindly answer with a numeric value in nM, unit omitted.

{"CHEMICAL_STRING": "CCN1CCN(c2cc(Nc3ncc(-c4ccc(NC(=O)Nc5ccc(Cl)cc5)cc4)s3)nc(C)n2)CC1", "IC50 / nM": 43}

Recorded result, `Cc1nc(Nc2ncc(-c3ccc(NC(=O)Nc4ccccc4)cc3)s2)cc(N2CCC(N)CC2)n1` , IC50: 53

Recorded result, `CCc1cc(NC(=O)Nc2ccc(-c3cnc(Nc4cc(N5CCN(C)CC5)nc(C)n4)s3)cc2)no1` , IC50: 10
